Give measured inhibition at 10 µM for each item. Keep answers brief.
system: Chlamydia pneumoniae; assay: Antibacterial activity against Chlamydia pneumoniae CWL029 infected in human HL cells assessed as inhibition of bacterial growth at 10 uM after 72 hrs by TR-FIA method; type: functional
Numbers only, in %.

# count of solved cases: 3
• COc1ccc(-c2nc3ccccc3[nH]2)cc1NC(=O)c1cccs1 = 52
• O=C(Nc1cccc(-c2nc3ccccc3[nH]2)c1)c1cccc(F)c1 = 58
• O=C(Nc1cccc(-c2nc3ccccc3[nH]2)c1)c1cccc(Cl)c1 = 94

Batch of 3 compounds: report inhibition at 10 µM for each.
1. CC(C)(C)C(=O)Nc1cccc(-c2nc3ccccc3[nH]2)c1
2. Cc1c(NC(=O)c2cccs2)cccc1-c1nc2ccccc2[nH]1
3. O=C(Nc1ccc(-c2nc3ccccc3[nH]2)cc1)c1cccs1

Response:
1: 0; 2: 59; 3: 0

Please state inhibition at 10 µM for every compound in the list that follows.
1. Cn1cccc1C(=O)Nc1cccc(-c2nc3ccccc3[nH]2)c1
2. COC(=O)c1cccc(C(=O)Nc2cccc(-c3nc4ccccc4[nH]3)c2)c1
3. O=C(Nc1cccc(-c2ncc[nH]2)c1)c1ccsc1
4. O=C(Nc1cccc(-c2nc3ccccc3[nH]2)c1)c1ccccc1C(F)(F)F

Response:
[80, 99, 0, 96]

Request: Query: inhibition at 10 µM; subject: COc1ccccc1C(=O)Nc1cccc(-c2nc3ccccc3[nH]2)c1
Response: 0

----------
Answer each item with its documented viability at 72 h, 10 µM.
assay: Cytotoxicity against human HL cells assessed as cell viability at 10 uM after 72 hrs by celltiter-glo analysis; assay type: cell-based; settings: read-out: Activity
Give bare numbers, in %.

* O=C(Nc1cccc(-c2nc3cc(Cl)ccc3[nH]2)c1)c1cccs1 | 92
* O=C(Nc1cccc(-c2nc3ccccc3[nH]2)c1)C1CCCCC1 | 94
* Cn1c(-c2cccc(NC(=O)c3cccs3)c2)nc2ccccc21 | 102

Report viability at 72 h, 10 µM for every entry below.
1. O=S(=O)(Nc1cccc(-c2nc3ccccc3[nH]2)c1)c1ccccc1
2. O=C(Nc1cccc(-c2nc3ccccc3[nH]2)c1)c1cscn1
3. O=C(Nc1cccc(-c2nc3ccccc3[nH]2)c1)c1cccc(F)c1
4. COc1ccc2[nH]c(-c3cccc(NC(=O)c4cccs4)c3)nc2c1
5. O=C(Nc1cccc(-c2nc3ccccc3[nH]2)c1)c1ccccc1
6. O=C(Nc1cccc(-c2nc3ccccc3[nH]2)c1)c1cccc(Cl)c1
7. O=C(Cc1cccs1)Nc1cccc(-c2nc3ccccc3[nH]2)c1

Response:
1: 77; 2: 98; 3: 101; 4: 98; 5: 98; 6: 106; 7: 107

Request: Suppose we examine the compound O=C(Nc1cccc(-c2nc3ccccc3[nH]2)c1)c1ccoc1 ; what viability at 72 h, 10 µM value has been reported?
Response: 101

----------
system: HL; assay: Cytotoxicity against human HL cells at 2.5 uM after 72 hrs by celltiter-glo analysis; assay type: cell-based
quantity.measured: Activity

* Cc1ccc2[nH]c(-c3cccc(NC(=O)c4cccs4)c3)nc2c1 | Non-toxic
* COc1ccc2[nH]c(-c3cccc(NC(=O)c4ccsc4)c3)nc2c1 | Non-toxic
* O=C(Nc1cccc(-c2nc3cc(Cl)ccc3[nH]2)c1)c1cccs1 | Non-toxic
* O=C(Nc1cccc(-c2nc3ccccc3[nH]2)c1)c1cccs1 | Non-toxic
* Cc1ccccc1C(=O)Nc1cccc(-c2nc3ccccc3[nH]2)c1 | Non-toxic
* O=C(Nc1cccc(-c2nc3ccccc3[nH]2)c1)c1cccc(C(F)(F)F)c1 | Non-toxic

# per-item lookup of Activity; items listed below
1. O=C(Nc1cccc(-c2nc3ccccc3[nH]2)c1)c1ccsc1
2. O=C(Nc1cccc(-c2nc3ccccc3[nH]2)c1)C1CCCCC1
3. Cc1cccc(C(=O)Nc2cccc(-c3nc4ccccc4[nH]3)c2)c1

Response:
1. Non-toxic
2. Non-toxic
3. Non-toxic

----------
assay: Cytotoxicity against human HL cells assessed as cell viability at 10 uM after 72 hrs by celltiter-glo analysis; assay type: cell-based; conditions: read-out: Activity
Assignment: determine reported viability at 72 h, 10 µM for the given compounds.
Numbers only, in %.

Some entries whose results are on file:
- COc1ccc(-c2nc3ccccc3[nH]2)cc1NC(=O)c1cccs1: 101
- Cc1cccc(C(=O)Nc2cccc(-c3nc4ccccc4[nH]3)c2)c1: 99
- O=C(Nc1cccc(-c2nc3ccccc3[nH]2)c1)c1cccs1: 98

Report viability at 72 h, 10 µM for every entry below.
1. CC(C)(C)C(=O)Nc1cccc(-c2nc3ccccc3[nH]2)c1
2. Cc1ccc2[nH]c(-c3cccc(NC(=O)c4cccs4)c3)nc2c1
3. O=C(Nc1cccc(-c2nc3ccccc3[nH]2)c1)c1ccco1
4. COc1cccc(C(=O)Nc2cccc(-c3nc4ccccc4[nH]3)c2)c1
5. O=C(Nc1cccc(-c2nc3ccccc3[nH]2)c1)c1ccsc1
6. Cc1c(NC(=O)c2cccs2)cccc1-c1nc2ccccc2[nH]1

Response:
1: 98; 2: 95; 3: 98; 4: 97; 5: 98; 6: 87

// each compound listed below needs its viability at 72 h, 10 µM
1. O=C(Nc1cccc(-c2ncc[nH]2)c1)c1cccs1
2. Cc1ccccc1C(=O)Nc1cccc(-c2nc3ccccc3[nH]2)c1

Response:
115
90

----------
experiment: Cytotoxicity against human HL cells assessed as cell viability at 10 uM after 72 hrs by celltiter-glo analysis; assay type: cell-based; conditions: read-out: Activity
quantity.measured: viability at 72 h, 10 µM (%)
Answers are plain numbers, in %.

• Cc1cccc2[nH]c(-c3cccc(NC(=O)c4cccs4)c3)nc12 = 102
• O=C(Nc1cccc(-c2nc3ccccc3[nH]2)c1)c1cccc(C(F)(F)F)c1 = 69
• COc1ccc2[nH]c(-c3cccc(NC(=O)c4ccsc4)c3)nc2c1 = 95
• O=C(Nc1ccc(-c2nc3ccccc3[nH]2)cc1)c1cccs1 = 96
• O=C(Nc1cccc(-c2nc3ccccc3o2)c1)c1cccs1 = 94

Could you report viability at 72 h, 10 µM for every entry in the following list?
1. COC(=O)c1cccc(C(=O)Nc2cccc(-c3nc4ccccc4[nH]3)c2)c1
2. O=C(Nc1cccc(-c2ncc[nH]2)c1)c1ccsc1
3. Cn1cccc1C(=O)Nc1cccc(-c2nc3ccccc3[nH]2)c1

Response:
1: 99; 2: 133; 3: 104

----------
tested on: Chlamydia pneumoniae; assay: Chlamydiostatic activity against Chlamydia pneumoniae CV6 infected in human Hep2 cells after 72 hrs by fluorescence assay; format: functional, HEp-2; conditions: CV6, 72 h
quantity.measured: MIC (µM)
Answers are plain numbers, in µM.

# count of solved cases: 8
- O=C(Nc1cccc(-c2nc3cc(Cl)ccc3[nH]2)c1)c1cccs1: 196
- O=C(Nc1cccc(-c2nc3ccccc3[nH]2)c1)c1cccs1: 196
- COc1ccc2[nH]c(-c3cccc(NC(=O)c4ccsc4)c3)nc2c1: 12.6
- Cc1ccccc1C(=O)Nc1cccc(-c2nc3ccccc3[nH]2)c1: 6.1
- O=C(Nc1cccc(-c2nc3ccccc3[nH]2)c1)C1CCCCC1: 24.5
- Cc1ccc2[nH]c(-c3cccc(NC(=O)c4cccs4)c3)nc2c1: 12.6
- Cc1cccc(C(=O)Nc2cccc(-c3nc4ccccc4[nH]3)c2)c1: 3.2
- O=C(Nc1cccc(-c2nc3ccccc3[nH]2)c1)c1cccc(C(F)(F)F)c1: 3.2

Switching to the query record.
Request: Notebook: pull reported MIC for Chlamydia pneumoniae, entry CC[C@H]1OC(=O)[C@H](C)[C@@H](O[C@H]2C[C@@](C)(OC)[C@@H](O)[C@H](C)O2)[C@H](C)[C@@H](O[C@@H]2O[C@H](C)C[C@H](N(C)C)[C@H]2O)[C@](C)(O)C[C@@H](C)C(=O)[C@H](C)[C@@H](O)[C@]1(C)O
Response: 0.17

----------
tested on: Chlamydia pneumoniae; assay: Antibacterial activity against Chlamydia pneumoniae CWL029 infected in human HL cells assessed as inhibition of bacterial growth at 10 uM after 72 hrs by TR-FIA method; assay type: functional
Exercise: for every item that follows, state its recorded inhibition at 10 µM.
// return the numeric value with its unit appended

// known answers, use as guide
* O=C(Nc1cccc(-c2nc3ccccc3[nH]2)c1)c1ccccc1 | 99%
* O=C(Nc1cccc(-c2nc3ccccc3[nH]2)c1)c1cscn1 | 39%
* O=C(Cc1cccs1)Nc1cccc(-c2nc3ccccc3[nH]2)c1 | 70%
* Cn1c(-c2cccc(NC(=O)c3cccs3)c2)nc2ccccc21 | 0%
* O=S(=O)(Nc1cccc(-c2nc3ccccc3[nH]2)c1)c1ccccc1 | 0%
* O=C(Nc1cccc(-c2nc3ccccc3[nH]2)c1)c1ccsc1 | 68%
* Cc1ccc2[nH]c(-c3cccc(NC(=O)c4cccs4)c3)nc2c1 | 99%
* CC(=O)Nc1cccc(-c2nc3ccccc3[nH]2)c1 | 0%

Give one value of inhibition at 10 µM per listed compound.
1. Cc1ccccc1C(=O)Nc1cccc(-c2nc3ccccc3[nH]2)c1
2. O=C(Nc1cccc(-c2nc3ccccc3o2)c1)c1cccs1
3. Cc1cccc2[nH]c(-c3cccc(NC(=O)c4cccs4)c3)nc12

Response:
["99%", "61%", "89%"]
